All figures here come from ChEMBL document CHEMBL5500396.

Test Summary: in vitro
Assay Setup: rat, plasma
Description: Stability in rat plasma assessed as half-life at 5 uM incubated for 120 mins by LC-MS/MS analysis
What half-life at 2 h, 5 µM was measured for each of the following?
API: value field is a number in min; no unit string.

So, O=C(c1ccc(CCNC[C@H](O)c2ccc(O)c3[nH]c(=O)ccc23)cc1)N1CCC(c2cccc([C@](O)(C(=O)OCC3CCN(Cc4ccccc4)CC3)c3ccccc3)c2)CC1 ? Its half-life at 2 h, 5 µM was 32

So, O=C(c1ccc(CNC[C@H](O)c2ccc(O)c3[nH]c(=O)ccc23)cc1)N1CC(COc2cccc([C@](O)(C(=O)OCC3CCN(Cc4ccccc4)CC3)c3ccccc3)c2)C1 ? Its half-life at 2 h, 5 µM was 50

So, O=C(NCCCOc1cccc([C@](O)(C(=O)O[C@H]2CCCN(Cc3ccccc3)C2)c2ccccc2)c1)c1ccc(CNC[C@H](O)c2ccc(O)c3[nH]c(=O)ccc23)cc1.O=CO ? Its half-life at 2 h, 5 µM was 11

So, O=C(NCCCOc1cccc([C@@](O)(C(=O)OCC2CCN(Cc3ccccc3)CC2)c2ccccc2)c1)c1ccc(CNCC(O)c2ccc(O)c3[nH]c(=O)ccc23)cc1 (stereo partly specified) ? Its half-life at 2 h, 5 µM was 11

So, CN1CCC[C@@H](OC(=O)[C@](O)(c2ccccc2)c2cccc(OCCCNC(=O)c3ccc(CNC[C@H](O)c4ccc(O)c5[nH]c(=O)ccc45)c(F)c3)c2)C1.O=CO ? Its half-life at 2 h, 5 µM was 15
